experiment: in vivo; conditions: Wistar/Han, rat, po, 2 mg/kg
Exercise: state measured AUC at 24 h for each of the compounds provided.
Numbers only, in ng·h/mL.

C[C@H](NC(=O)c1c[nH]c2ncc(C3CC3)nc12)C(C)(C)O | 1090

Enquiry: State its AUC at 24 h: C[C@H](NC(=O)c1c[nH]c2ncc(C3CC3)nc12)C(C)(C)C#N
Return: 506

====

experiment: in vitro; conditions: rat, microsomes
Metric: microsomal CLint at 0.75 h, 2 µM (µL/min/mg)
Answers are plain numbers, in µL/min/mg.

C[C@H](NC(=O)c1c[nH]c2ncc(C3CC3)nc12)C(C)(C)C#N | 50.3

Give microsomal CLint at 0.75 h, 2 µM for all compounds that follow.
1. CC(C)(C)[C@@H](NC(=O)c1c[nH]c2ncc(C3CC3)nc12)C(=O)N1CC(C#N)C1
2. C[C@H](NC(=O)c1c[nH]c2ncc(C3CC3)nc12)C(C)(C)O

Return:
[51.5, 38.2]

====

assay: in vivo; conditions: Wistar/Han, rat, iv, 0.5 mg/kg
Metric: half-life at 24 h (h)
Answers are plain numbers, in h.

Give half-life at 24 h for all molecules that follow.
1. C[C@H](NC(=O)c1c[nH]c2ncc(C3CC3)nc12)C(C)(C)C#N
2. CC(C)(C)[C@@H](NC(=O)c1c[nH]c2ncc(C3CC3)nc12)C(=O)N1CC(C#N)C1
3. C[C@H](NC(=O)c1c[nH]c2ncc(C3CC3)nc12)C(C)(C)O

Return:
0.66
3.8
4.4

====

assay: physchem
Description: Solubility of the compound
Metric: solubility (µg/mL)
Give bare numbers, in µg/mL.

C[C@H](NC(=O)c1c[nH]c2ncc(C3CC3)nc12)C(C)(C)O | 55.7

Enquiry: State its solubility: CC(C)(C)[C@@H](NC(=O)c1c[nH]c2ncc(C3CC3)nc12)C(=O)N1CC(C#N)C1
Return: 32.7

====

Exercise: state measured Papp B→A at 10 µM for each of the compounds provided.
experiment: in vitro; settings: human, Caco-2, pH 7.4
Description: Permeability across basolateral to apical side in human Caco2 cells at 10 uM at pH 7.4
One number for each entry, in ×10⁻⁶ cm/s.

C[C@H](NC(=O)c1c[nH]c2ncc(C3CC3)nc12)C(C)(C)O | 16.4

Enquiry: State its Papp B→A at 10 µM: C[C@H](NC(=O)c1c[nH]c2ncc(C3CC3)nc12)C(C)(C)C#N
Return: 15.3

====

experiment: in vitro; settings: human, plasma
Description: Fraction unbound in human plasma by equilibrium dialysis method
Metric: fraction unbound
Numbers only.

// known answers, use as guide
C[C@H](NC(=O)c1c[nH]c2ncc(C3CC3)nc12)C(C)(C)O | 0.116
C[C@H](NC(=O)c1c[nH]c2ncc(C3CC3)nc12)C(C)(C)C#N | 0.066

Now, please, on to the next compound.
Enquiry: State its fraction unbound: CC(C)(C)[C@@H](NC(=O)c1c[nH]c2ncc(C3CC3)nc12)C(=O)N1CC(C#N)C1
Return: 0.034

====

assay: in vitro; details: human, Caco-2, pH 7.4
Description: Permeability across basolateral to apical side in human Caco2 cells at 50 uM at pH 7.4
Metric: Papp B→A at 50 µM (×10⁻⁶ cm/s)
Answers are plain numbers, in ×10⁻⁶ cm/s.

Enquiry: State its Papp B→A at 50 µM: CC(C)(C)[C@@H](NC(=O)c1c[nH]c2ncc(C3CC3)nc12)C(=O)N1CC(C#N)C1
Return: 24.6

====

Target: UniProt P52333
Sequence (P52333 whole entry): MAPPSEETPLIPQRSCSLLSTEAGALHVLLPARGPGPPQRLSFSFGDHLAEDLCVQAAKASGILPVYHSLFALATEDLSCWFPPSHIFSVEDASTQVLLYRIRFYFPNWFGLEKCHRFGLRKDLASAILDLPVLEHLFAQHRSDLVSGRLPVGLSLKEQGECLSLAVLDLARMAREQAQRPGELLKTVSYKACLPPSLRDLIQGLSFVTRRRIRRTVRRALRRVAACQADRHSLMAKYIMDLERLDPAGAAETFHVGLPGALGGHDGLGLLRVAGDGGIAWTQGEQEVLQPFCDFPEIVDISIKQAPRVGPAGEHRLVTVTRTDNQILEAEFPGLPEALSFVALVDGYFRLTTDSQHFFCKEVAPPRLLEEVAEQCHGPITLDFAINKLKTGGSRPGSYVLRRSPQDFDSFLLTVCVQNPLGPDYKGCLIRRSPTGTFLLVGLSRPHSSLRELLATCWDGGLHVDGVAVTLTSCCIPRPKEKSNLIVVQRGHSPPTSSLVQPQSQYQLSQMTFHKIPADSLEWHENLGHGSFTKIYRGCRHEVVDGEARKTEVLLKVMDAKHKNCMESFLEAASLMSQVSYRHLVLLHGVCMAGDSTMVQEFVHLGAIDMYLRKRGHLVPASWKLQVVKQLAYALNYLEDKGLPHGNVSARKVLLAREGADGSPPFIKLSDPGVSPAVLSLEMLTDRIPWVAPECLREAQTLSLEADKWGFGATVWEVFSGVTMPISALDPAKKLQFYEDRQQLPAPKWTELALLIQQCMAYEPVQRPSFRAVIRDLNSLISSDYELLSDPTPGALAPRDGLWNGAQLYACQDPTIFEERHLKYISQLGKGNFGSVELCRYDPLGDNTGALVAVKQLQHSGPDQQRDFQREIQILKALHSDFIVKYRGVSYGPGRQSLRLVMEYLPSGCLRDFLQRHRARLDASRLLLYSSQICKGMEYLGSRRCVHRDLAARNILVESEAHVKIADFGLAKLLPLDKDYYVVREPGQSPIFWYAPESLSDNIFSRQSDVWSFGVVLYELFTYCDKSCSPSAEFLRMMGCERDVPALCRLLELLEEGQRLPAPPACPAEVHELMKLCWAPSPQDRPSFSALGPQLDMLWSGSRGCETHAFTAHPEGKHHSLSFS
Metric: pIC50
One number for each entry, as −log10 of the molar value.

// known answers, use as guide
CC(C)[C@H](C)NC(=O)c1c[nH]c2ncc(C3CC3)nc12 | 8.11
CC[C@H](C)NC(=O)c1c[nH]c2ncc(C3CC3)nc12 | 8.02
C[C@@H](NC(=O)c1c[nH]c2ncc(C3CC3)nc12)C(=O)N1CCC(C#N)C1 (some centres undefined) | 8.06

Now, please, on to the next compound.
Enquiry: State its pIC50: CC1CCN(C(=O)[C@@H](C)NC(=O)c2c[nH]c3ncc(C4CC4)nc23)C1 (some centres undefined)
Return: 7.09

====

Exercise: state measured IC50 for each of the compounds provided.
molecular target: JAK3/JAK1 (Homo sapiens, UniProt P23458+P52333); format: tissue-based, Blood
A complete answer gives the number followed by the unit.

// known answers, use as guide
N#CC1CN(C(=O)[C@H](NC(=O)c2c[nH]c3ncc(C4CC4)nc23)C2CC2)C1 | 0.511 µM
C[C@H](NC(=O)c1c[nH]c2ncc(C3CC3)nc12)C(C)(C)C | 2.46 µM

Now, please, on to the next compound.
Enquiry: State its IC50: C[C@@H](NC(=O)c1c[nH]c2ncc(C3CC3)nc12)C(=O)N1CCC(C#N)C1 (stereo partly drawn)
Return: 5.02 µM

====

target: Tyrosine-protein kinase JAK2 (Mus musculus)
Sequence (Q62120 whole entry): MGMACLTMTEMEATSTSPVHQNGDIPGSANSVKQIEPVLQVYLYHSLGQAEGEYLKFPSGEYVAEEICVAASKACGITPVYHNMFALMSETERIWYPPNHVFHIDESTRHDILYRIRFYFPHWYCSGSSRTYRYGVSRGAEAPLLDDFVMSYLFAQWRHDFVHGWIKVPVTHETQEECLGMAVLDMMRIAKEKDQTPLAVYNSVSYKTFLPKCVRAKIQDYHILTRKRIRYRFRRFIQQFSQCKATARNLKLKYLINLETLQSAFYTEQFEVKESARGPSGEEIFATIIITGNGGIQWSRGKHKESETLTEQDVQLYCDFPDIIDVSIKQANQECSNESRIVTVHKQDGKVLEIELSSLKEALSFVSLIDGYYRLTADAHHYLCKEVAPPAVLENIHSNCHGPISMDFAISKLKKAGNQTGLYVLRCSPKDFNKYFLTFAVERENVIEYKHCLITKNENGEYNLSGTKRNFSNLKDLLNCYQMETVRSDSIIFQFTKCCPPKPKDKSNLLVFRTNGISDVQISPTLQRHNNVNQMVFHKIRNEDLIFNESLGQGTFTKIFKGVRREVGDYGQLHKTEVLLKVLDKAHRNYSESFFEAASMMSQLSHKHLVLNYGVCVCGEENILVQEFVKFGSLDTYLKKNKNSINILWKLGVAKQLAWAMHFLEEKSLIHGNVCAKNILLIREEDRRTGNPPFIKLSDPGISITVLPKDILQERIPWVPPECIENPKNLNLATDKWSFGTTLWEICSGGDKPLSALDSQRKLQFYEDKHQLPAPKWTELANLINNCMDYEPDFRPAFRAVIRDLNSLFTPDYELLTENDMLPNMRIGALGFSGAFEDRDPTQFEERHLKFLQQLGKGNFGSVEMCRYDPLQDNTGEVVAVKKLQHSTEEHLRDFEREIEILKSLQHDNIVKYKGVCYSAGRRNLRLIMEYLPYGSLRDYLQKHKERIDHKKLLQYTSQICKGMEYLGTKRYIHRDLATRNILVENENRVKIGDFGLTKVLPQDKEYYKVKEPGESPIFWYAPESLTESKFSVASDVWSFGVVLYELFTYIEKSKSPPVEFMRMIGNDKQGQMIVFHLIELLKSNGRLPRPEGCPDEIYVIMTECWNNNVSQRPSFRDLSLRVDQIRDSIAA
Metric: pIC50
Give bare numbers, as −log10 of the molar value.

CC(C)(C)[C@@H](NC(=O)c1c[nH]c2ncc(C3CC3)nc12)C(=O)N1CC(C#N)C1 | 5.96

Enquiry: State its pIC50: N#C[C@H]1CCN(C(=O)[C@H](NC(=O)c2c[nH]c3ncc(C4CC4)nc23)C2CC2)C1
Return: 6.07

====

Exercise: state measured IC50 for each of the compounds provided.
target: JAK3/JAK1 (Homo sapiens, UniProt P23458+P52333); assay type: protein-complex assay
One number for each entry, in nM.

// known answers, use as guide
N#CC1CN(C(=O)[C@H](NC(=O)c2c[nH]c3ncc(C4CC4)nc23)C2CC2)C1 | 30
C[C@@H](NC(=O)c1c[nH]c2ncc(C3CC3)nc12)C(=O)N1CCC(C#N)C1 (stereo partly drawn) | 553

Enquiry: State its IC50: C[C@H](NC(=O)c1c[nH]c2ncc(C3CC3)nc12)C(C)(C)C
Return: 211

====

Exercise: state measured bioavailability at 24 h for each of the molecules provided.
test: in vivo; conditions: Wistar/Han, rat, po, 2 mg/kg
Answers are plain numbers, in %.

C[C@H](NC(=O)c1c[nH]c2ncc(C3CC3)nc12)C(C)(C)C#N | 33

Enquiry: State its bioavailability at 24 h: C[C@H](NC(=O)c1c[nH]c2ncc(C3CC3)nc12)C(C)(C)O
Return: 24

====

test: in vitro; details: human, Caco-2, pH 7.4
Description: Permeability from apical to basolateral side in human Caco2 cells at 50 uM at pH 7.4
Metric: Papp A→B at 50 µM (×10⁻⁶ cm/s)
Answers are plain numbers, in ×10⁻⁶ cm/s.

Enquiry: State its Papp A→B at 50 µM: CC(C)(C)[C@@H](NC(=O)c1c[nH]c2ncc(C3CC3)nc12)C(=O)N1CC(C#N)C1
Return: 2.1

====

Please consider the recorded IC50 for Tyrosine-protein kinase JAK1 (Homo sapiens, UniProt P23458) in what follows.
Numbers only, in nM.

Give IC50 for all molecules that follow.
1. CC(C)NC(=O)c1c[nH]c2ncc(C3CC3)nc12
2. C[C@@H](NC(=O)c1c[nH]c2ncc(C3CC3)nc12)C(=O)N1CCC1
3. CC(C)[C@H](C)NC(=O)c1c[nH]c2ncc(C3CC3)nc12
4. N#C[C@H]1CCN(C(=O)[C@H](NC(=O)c2c[nH]c3ncc(C4CC4)nc23)C2CC2)C1

Return:
1. 224
2. 871
3. 44.8
4. 0.59
